- STUDY TARGET: rat TRPA1 (Rattus norvegicus, UniProt Q6RI86)
- Construct: expressed in transfected cells; host or cells: HEK-293
- Sequence (Q6RI86 whole entry): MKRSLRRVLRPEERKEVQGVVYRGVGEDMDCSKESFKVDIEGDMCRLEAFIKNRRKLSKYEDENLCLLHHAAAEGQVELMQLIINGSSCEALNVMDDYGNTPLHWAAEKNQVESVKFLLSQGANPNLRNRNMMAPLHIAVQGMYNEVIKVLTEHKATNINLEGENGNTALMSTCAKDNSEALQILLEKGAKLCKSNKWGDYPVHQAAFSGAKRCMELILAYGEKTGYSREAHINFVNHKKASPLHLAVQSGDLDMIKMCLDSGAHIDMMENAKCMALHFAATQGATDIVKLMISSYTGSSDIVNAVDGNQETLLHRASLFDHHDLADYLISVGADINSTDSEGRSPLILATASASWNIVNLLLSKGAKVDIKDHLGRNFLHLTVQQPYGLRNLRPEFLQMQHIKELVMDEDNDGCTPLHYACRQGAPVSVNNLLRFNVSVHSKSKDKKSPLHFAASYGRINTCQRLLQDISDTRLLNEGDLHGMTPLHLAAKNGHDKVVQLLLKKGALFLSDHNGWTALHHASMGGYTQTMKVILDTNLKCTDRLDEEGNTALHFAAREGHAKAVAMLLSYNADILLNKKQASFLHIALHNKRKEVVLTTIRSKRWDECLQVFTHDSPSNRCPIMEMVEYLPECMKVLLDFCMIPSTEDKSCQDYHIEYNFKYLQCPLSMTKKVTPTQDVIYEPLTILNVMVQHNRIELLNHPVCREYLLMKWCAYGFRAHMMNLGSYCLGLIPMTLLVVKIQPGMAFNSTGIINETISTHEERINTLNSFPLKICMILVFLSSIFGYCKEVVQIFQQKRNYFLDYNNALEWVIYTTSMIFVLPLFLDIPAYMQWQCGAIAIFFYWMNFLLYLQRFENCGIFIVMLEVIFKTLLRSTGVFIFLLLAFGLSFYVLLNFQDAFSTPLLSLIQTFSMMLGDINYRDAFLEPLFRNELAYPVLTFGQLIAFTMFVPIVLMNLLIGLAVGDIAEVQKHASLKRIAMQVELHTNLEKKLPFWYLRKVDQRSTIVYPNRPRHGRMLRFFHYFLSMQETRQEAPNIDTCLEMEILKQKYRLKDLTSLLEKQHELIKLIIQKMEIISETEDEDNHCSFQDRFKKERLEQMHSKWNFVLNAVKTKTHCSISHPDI
- MEASUREMENT PROTOCOL: Elevation of intracellular Ca2+ (Fluo-4) in HEK-293 cells stably transfected with rat TRPA1; agonist and antagonist/desensitizing behaviour
- Format: cell-based
REPORTED PROPERTY: pEC50
Please note pEC50 is a logarithmic value: minus log10 of concentration in mol/L. Answer with that number alone.

input: Fill in the blank: the reported pEC50 of C[C@@H]1O[C@@H](Oc2ccc(CN=C=S)cc2)[C@H](O)[C@H](O)[C@H]1O is ____.
output: 5.50
